Known IC50 of a selection of compounds
# test_system: hMAGL (MAGL-overexpressing membrane preparations from transiently transfected HEK293T cells) (Homo sapiens)
# Sequence (Q99685 1-303): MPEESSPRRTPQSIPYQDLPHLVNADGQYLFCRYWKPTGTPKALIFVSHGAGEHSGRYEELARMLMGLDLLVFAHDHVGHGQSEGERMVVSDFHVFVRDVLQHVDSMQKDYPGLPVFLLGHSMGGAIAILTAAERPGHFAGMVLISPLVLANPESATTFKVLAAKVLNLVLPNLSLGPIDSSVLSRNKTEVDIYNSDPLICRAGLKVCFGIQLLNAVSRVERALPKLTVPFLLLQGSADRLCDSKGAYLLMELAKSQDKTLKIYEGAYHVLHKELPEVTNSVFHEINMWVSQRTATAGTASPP
Form entry: value (nM) — number only.

Recorded results for 5 compounds are shown here.
                                   compound  assay_value
0  C[C@H]1[C@H](C)N(c2cccc(Cl)c2)CCN1C(=O)c1ccc([S+]([O-])CC(=O)c2ccc(F)c(F)c2)c(Cl)c1 (mixture of isomers)          759
1  C[C@H]1[C@H](C)N(c2cccc(Cl)c2)CCN1C(=O)c1ccc([S+]([O-])CC(=O)C(F)(F)F)c(Cl)c1 (mixture of isomers)         7.41
2  Cc1cnc(C(=O)C[S+]([O-])c2ccc(C(=O)N3CCN(c4cccc(Cl)c4)[C@@H](C)[C@@H]3C)cc2Cl)o1 (mixture of isomers)          380
3  CCC(F)(F)C(=O)C[S+]([O-])c1ccc(C(=O)N2CCN(c3cc(Cl)ccn3)[C@@H](C)[C@@H]2C)cc1Cl (mixture of isomers)         2.82
4  COCCOC(=O)C[S+]([O-])c1ccc(C(=O)N2CCN(c3cccc(Cl)c3)[C@@H](C)[C@@H]2C)cc1Cl (mixture of isomers)         9.12

Now for a further compound.
Give recorded IC50. CCOC(=O)C[S+]([O-])c1ccc(C(=O)N2CCN(c3c(Cl)cccc3Cl)CC2)cc1[N+](=O)[O-] (stereo not drawn)
1820

* * *

# test_system: hMAGL (MAGL-overexpressing membrane preparations from transiently transfected HEK293T cells) (Homo sapiens)
# Sequence (Q99685 1-303): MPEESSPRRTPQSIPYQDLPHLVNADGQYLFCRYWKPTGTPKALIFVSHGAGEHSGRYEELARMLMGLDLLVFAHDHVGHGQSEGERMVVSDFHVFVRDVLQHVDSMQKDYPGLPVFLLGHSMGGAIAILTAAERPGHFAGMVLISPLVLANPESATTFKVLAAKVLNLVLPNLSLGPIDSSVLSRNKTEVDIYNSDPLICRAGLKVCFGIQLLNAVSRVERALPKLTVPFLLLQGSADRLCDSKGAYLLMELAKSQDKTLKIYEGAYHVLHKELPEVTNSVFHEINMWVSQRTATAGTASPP
quantity_kind: pIC50
// returns pIC50 (minus log10 of molar concentration), number only

molecule	assay_value
C[C@H]1[C@H](C)N(c2cccc(Cl)c2)CCN1C(=O)c1ccc([S+]([O-])CC(=O)OC2CCOCC2)c(Cl)c1 (mixture of isomers) [Example 67]	7.89

Give the value of pIC50 reported for the following: CCOC(=O)C[S+]([O-])c1ccc(C(=O)N2CCN(c3cccc(Cl)n3)[C@@H](C)[C@@H]2C)cc1Cl (mixture of isomers) [Example 70]
8.04

Answer with the recorded pIC50 of C[C@H]1[C@H](C)N(c2cccc(Cl)c2)CCN1C(=O)c1ccc([S+]([O-])CC(=O)c2ccc(C(F)(F)F)nc2)c(Cl)c1 (mixture of isomers) [Example 90] only.
6.09

Indicate its recorded pIC50; the molecule in question is C[C@H]1[C@H](C)N(c2cccc(Cl)c2)CCN1C(=O)c1ccc([S+]([O-])CC(=O)c2cccnn2)c(Cl)c1 (mixture of isomers) [Example 88]
6.60

* * *

# test_system: hMAGL (MAGL-overexpressing membrane preparations from transiently transfected HEK293T cells) (Homo sapiens)
Property: pIC50; scope: individual compounds
Bear in mind: pIC50 is minus log10 of a mol/L concentration; give just that figure.

Some entries whose results are on file:
In [3]: df
Out[3]:
                                   compound  assay_value
0  CCOC(=O)C[S+]([O-])c1ccc(C(=O)N2CCN(c3cccc(-c4ccccc4)c3)CC2)cc1[N+](=O)[O-] (stereo not shown)         5.87
1  C[C@@H]1[C@@H](C)N(c2cccc(Cl)c2)CCN1C(=O)c1ccc([S+]([O-])CC(=O)OC2CCC2)c(Cl)c1 (mixture of isomers)         8.38

Given CCOC(=O)C[S+]([O-])c1ccc(C(=O)N2CCN(c3ccc(C(F)(F)F)cc3)CC2)cc1[N+](=O)[O-] (stereo not shown) , respond with its pIC50.
6.23

Retrieve pIC50 measured for C[C@H]1[C@H](C)N(c2cc(Cl)ccn2)CCN1C(=O)c1ccc([S+]([O-])CC(=O)C(C)(F)F)c(Cl)c1 (mixture of isomers) and print it.
8.47

* * *

Measured log10 IC50, listed per entry.
# test_system: hMAGL (MAGL-overexpressing membrane preparations from transiently transfected HEK293T cells) (Homo sapiens)
Values are log10 of IC50 in nM.

Examples with their reported log10 IC50 follow.
In [3]: df
Out[3]:
                                   compound  quantity_kind  assay_value
0  CCOC(=O)CC(=O)c1ccc(C(=O)N2CCN(c3cccc(Cl)c3)[C@H](C)[C@H]2C)cc1Cl (racemic)     log10 IC50         3.06
1  C[C@H]1[C@H](C)N(c2cccc(Cl)c2)CCN1C(=O)c1ccc([S+]([O-])CC(=O)c2cnccn2)c(Cl)c1 (mixture of isomers)     log10 IC50         3.04
2  CCOC(=O)C[S+]([O-])c1ccc(C(=O)N2CCN(c3ccc(Cl)c(Cl)c3)CC2)cc1[N+](=O)[O-] (stereo not drawn)     log10 IC50         3.41

Could you please provide reported log10 IC50 for CCOC(=O)C[S+]([O-])c1ccc(C(=O)N2CCN(c3cncc(Cl)c3)[C@@H](C)[C@@H]2C)cc1Cl (mixture of isomers) ? Thanks!
1.32

Give the reported log10 IC50 for this compound. C[C@H]1[C@H](C)N(c2cccc(Cl)c2)CCN1C(=O)c1ccc([S+]([O-])CC(=O)c2nccs2)c(Cl)c1 (mixture of isomers)
2.37

Quickly give me recorded log10 IC50 for C[C@H]1[C@H](C)N(c2cccc(Cl)c2)CCN1C(=O)c1ccc([S+]([O-])CC(=O)c2ccncn2)c(Cl)c1 (mixture of isomers)
1.94

State, in one line, measured log10 IC50 of C[C@H]1[C@H](C)N(c2cccc(Cl)c2)CCN1C(=O)c1ccc([S+]([O-])CC(=O)c2ncccn2)c(Cl)c1 (mixture of isomers)
1.45

Respond only with log10 IC50 recorded for CCOC(=O)C[S+]([O-])c1ccc(C(=O)N2CCN(c3cccc(Cl)c3)CC2(C)C)cc1F (stereo not drawn)
1.76

Give the reported value of log10 IC50 for this record: C[C@H]1[C@H](C)N(c2cccc(Cl)c2)CCN1C(=O)c1ccc([S+]([O-])CC(=O)c2cc(F)cc(F)c2)c(Cl)c1 (mixture of isomers)
3.32

* * *

# test_system: hMAGL (MAGL-overexpressing membrane preparations from transiently transfected HEK293T cells) (Homo sapiens)
# Sequence (Q99685 1-303): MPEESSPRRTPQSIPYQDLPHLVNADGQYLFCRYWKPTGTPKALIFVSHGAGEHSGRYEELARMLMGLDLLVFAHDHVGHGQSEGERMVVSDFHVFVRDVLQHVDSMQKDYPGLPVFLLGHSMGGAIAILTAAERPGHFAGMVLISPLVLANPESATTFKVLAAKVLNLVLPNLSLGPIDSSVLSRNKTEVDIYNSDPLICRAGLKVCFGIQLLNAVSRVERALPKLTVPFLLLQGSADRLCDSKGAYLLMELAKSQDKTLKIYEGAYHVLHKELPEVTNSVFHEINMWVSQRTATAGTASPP
quantity_kind: IC50

molecule	IC50
CCN(C)C(=O)C[S+]([O-])c1ccc(C(=O)N2CCN(c3cccc(Cl)c3)[C@H](C)C2)cc1[N+](=O)[O-] (stereo partly drawn) [Example 33]	> 10 µM

Note IC50 for the molecule shown: C[C@H]1[C@H](C)N(c2cccc(Cl)c2)CCN1C(=O)c1ccc([S+]([O-])CC(=O)c2ccc(Cl)c(C(F)(F)F)c2)c(Cl)c1 (mixture of isomers) [Example 91]
> 10 µM

Provide measured IC50 value, entry: C[C@H]1[C@H](C)N(c2cccc(Cl)c2)CCN1C(=O)c1ccc([S+]([O-])CC(=O)c2ccc(F)c(C(F)(F)F)c2)c(Cl)c1 (mixture of isomers) [Example 92]
> 10 µM
